- procedure details: CHI Log D procedure
- Assay type: physicochemical
- test parameters: pH 7.4
assay readout: CHI Log D
// response body must contain only the number

Consider the worked cases shown below.
1) CC(=O)N1CCC[C@]12CC=CCCCC1(CCCC=CCCCCCC[C@@](C)(C(=O)N[C@@H](Cc3ccccc3)C(=O)N[C@@H](Cc3c[nH]c4ccccc34)C(=O)N[C@@H](CCC(N)=O)C(N)=O)NC(=O)[C@H](C(C)C)NC(=O)[C@H](Cc3ccc(Cl)cc3)NC(=O)[C@H](C)NC(=O)[C@H](C)NC(=O)[C@H](CC(=O)O)NC(=O)[C@H](CC(=O)O)NC1=O)NC(=O)[C@H](C)NC(=O)[C@H](CC(=O)O)NC2=O (some centres unmarked) [I-309] = 2.05
2) CC(=O)N1CCC[C@]12CC=CCCCC1(CCCC=CCCCCCC[C@@](C)(C(=O)N[C@@H](Cc3ccccc3)C(=O)N[C@@H](Cc3c[nH]c4ccccc34)C(=O)N[C@@H](CCC(N)=O)C(N)=O)NC(=O)[C@H](C(C)C)NC(=O)[C@H](Cc3cccc(C(F)(F)F)c3)NC(=O)[C@H](C)NC(=O)[C@H](C)NC(=O)[C@H](CC(=O)O)NC(=O)[C@H](CC(=O)O)NC1=O)NC(=O)[C@H](C)NC(=O)[C@H](CC(=O)O)NC2=O (some centres unmarked) [I-238] = 2.074
3) CC(=O)N1CCC[C@]12CC=CCCCC1(CCCC=CCCCCCC[C@@](C)(C(=O)N[C@@H](Cc3ccccc3)C(=O)N[C@@H](Cc3csc4ccccc34)C(=O)N[C@@H](CCC(N)=O)C(N)=O)NC(=O)[C@H](C)NC(=O)[C@H](Cc3cccc(C(F)(F)F)c3)NC(=O)[C@H](C)NC(=O)[C@H](C)NC(=O)[C@H](CC(=O)O)NC(=O)[C@H](CC(=O)O)NC1=O)NC(=O)[C@H](C)NC(=O)[C@H](CC(=O)O)NC2=O (some centres unmarked) [I-374] = 2.242
4) CC(=O)N1CCC[C@]12CC=CCCCC1(CCCC=CCCCOC(=O)N3CC[C@@](C(=O)N[C@@H](Cc4ccsc4)C(=O)N[C@@H](Cc4csc5ccccc45)C(=O)N[C@@H](CCC(N)=O)C(N)=O)(C3)NC(=O)[C@H](CC(N)=O)NC(=O)[C@H](Cc3ccccc3)NC(=O)[C@H](C)NC(=O)[C@H](C)NC(=O)[C@H](CC(=O)O)NC(=O)[C@H](CC(=O)O)NC1=O)NC(=O)[C@H](CC(C)(C)C)NC(=O)[C@H](CC(=O)O)NC2=O (some centres unmarked) [I-687] = 2.035

From here, focus on the item given below.
Input line: Fill in: CHI Log D of CC[C@H](C)[C@H](NC(=O)[C@H](CCC(N)=O)NC(=O)[C@H](Cc1csc2ccccc12)NC(=O)[C@H](Cc1ccccc1)NC(=O)[C@]1(C)CCCCCCC=CCCCC2(CCCC=CC[C@]3(CCCN3C(C)=O)C(=O)N[C@@H](CC(=O)O)C(=O)N[C@@H](CC(C)C)C(=O)N2)C(=O)N[C@@H](CC(=O)O)C(=O)N[C@@H](CCC(=O)O)C(=O)N[C@@H](C)C(=O)N[C@@H](C)C(=O)N[C@@H](Cc2ccccc2)C(=O)N[C@@H](CC(N)=O)C(=O)N1)C(N)=O (some centres unmarked) [I-733] is ___
Output line: 2.154

Hello, the source for this data is patent US20240116985A1, in case you need it.
